Just for reference, patent US11278550B2 is where these values come from.

- System: maternal Snrpn-EGFP MEFs
- testSummary: High content screening / concentration response of Snrpn-EGFP unsilencing
- Type: cell-based, mouse
- conditionParameters: maternal Snrpn-EGFP MEFs, 72 hours; read-out: half-maximal effective concentration (EC50), Snrpn-EGFP unsilencing
- Procedure: High content screenings of small molecules were performed as described in Huang, et al. Nature 481, 185-189 (2012). […] The unsilencing of Snrpn-EGFP was determined three days after drug treatment. The immunofluorescence-processed fibroblasts were imaged for Hoechst and Alexa Fluor 488 fluorescence using a BD Pathway 855 high content imaging microscope. […] The dose-response results were analyzed by using Graphpad Prism (Graphpad Software). […]
observable: EC50 (nM)
Write the value in nM as a bare number.

Entry under test: COc1cc2c(NC3CCN(C(C)C)CC3)nc(C3CCCCC3)nc2cc1OCCCN1CCCC1 [UNC0638] . Its EC50 was 1600
